Catalogue of pIC50 readings, one per entry.
Test system: HTT mRNA
Procedure Summary: RT-qPCR splicing assay, HTT mRNA canonical (CJ) and alternative (AJ) junction
Assay type: cell-based, human
Setup Conditions: Homo sapiens, HTT canonical junction mRNA, RT-qPCR; read-out: HTT CJ (decrease in CJ mRNA levels, IC50)
pIC50: −log10 of the molar value. Structures can show the parent of a compound that is named as a salt.

Cc1nc2c(C)c(O)c(-c3ccc4nc(N5CC[C@@H](N[C@H]6C[C@@H](F)C6)C5)ccc4n3)cc2o1 (stereo in doubt) | > 7.00

Incoming: State the recorded pIC50 for this entry: `CN[C@@H]1CCN(c2ccc3nc(-c4cc(F)c5nc(C)cn5c4)ncc3n2)C1`
Outgoing: 6.00 to 7.00

Incoming: Now give it for `Cc1nc2cc(O)c(-c3ccc4nc(N5CC[C@H](NC6(C)CC6)C5)ccc4n3)cc2o1` too.
Outgoing: > 7.00

Incoming: Now give it for `CCNC(=O)c1nc(-c2cc3cn(C)nc3c(C)c2O)nc2ccc(N3CCNCC3)cc12` too.
Outgoing: > 7.00

Incoming: Now give it for `Cn1cc2cc(-c3ccc4nc(N5CC[C@@H](NCC(F)(F)F)C5)ccc4n3)c(O)cc2n1` too.
Outgoing: < 5.00

Incoming: Now give it for `Cn1cc2cc(-c3ccc4nc(N5CC[C@H](N[C@H]6C[C@H](F)C6)C5)ccc4n3)c(O)cc2n1` too.
Outgoing: > 7.00

Incoming: Now give it for Cc1nc2c(C)c(O)c(-c3ccc4cc(N5CC[C@H](NC(C)(C)C)C5)ncc4n3)cc2o1 (single isomer, unassigned) too.
Outgoing: 5.00 to 6.00

Incoming: Now give it for Cc1c(O)c(-c2cc(Cl)c3cc(N4CCNCC4)cc(C)c3n2)cc2cn(C)nc12 [Compound 482, hydrochloride] too.
Outgoing: > 7.00

Incoming: Now give it for CNC(=O)c1nc(-c2cc3cn(C)nc3c(C)c2O)nc2ccc(N3C[C@@H](C)N[C@H](C)C3)cc12 (single isomer, unassigned) too.
Outgoing: > 7.00

Incoming: Now give it for Cn1cc2cc(-c3ccc4nc(N5CC[C@H](NC6CC6)C5)ccc4n3)c(O)c(F)c2n1 (single isomer, unassigned) too.
Outgoing: > 7.00

Incoming: Now give it for `Cc1c(O)c(-c2nc(C(N)=O)c3cc(N4CCNCC4)ccc3n2)cc2cn(C)nc12` too.
Outgoing: 6.00 to 7.00

Incoming: Now give it for `Cc1c(O)c(-c2ccc3nc(N4CC[C@H](NC5(C)CC5)C4)ccc3n2)cc2cn(C)nc12` too.
Outgoing: > 7.00

Incoming: Now give it for `CCN1CCC(c2ccc3nc(-c4cc5cn(C)nc5cc4O)ccc3n2)CC1` too.
Outgoing: 6.00 to 7.00

Incoming: Now give it for Cn1cc2cc(-c3ccc4nc(C5CCNC6(CC6)C5)ncc4n3)c(O)cc2n1 (stereo not drawn) too.
Outgoing: 6.00 to 7.00

---

Catalogue of pIC50 readings, one per entry.
System: MYB
Procedure Summary: HiBiT protein abundance assay, MYB (K562 HiBiT knock-in)
Format: cell-based, human
Setup Conditions: HiBiT knock-in K562 cells, 24 hours, top dose 10 μM
pIC50: −log10 of the molar value. Where a name gives a salt, the structure may show the parent alone.

Check out these entries, answers already filled in.
Cc1nc2cc(O)c(-c3ccc4nc(N5CC[C@H](NC(C)(C)C)C5)ncc4n3)cc2o1 | 5.00 to 6.00
C[C@@H]1CN(c2ccc3nc(-c4cc5cn(C)nc5c(F)c4O)nc(C4CC4)c3c2)C[C@H](C)N1 | > 7.00
Cc1c(O)c(-c2cc(Cl)c3cc(N4CCNCC4)cc(C)c3n2)cc2cn(C)nc12 [Compound 482, hydrochloride] | > 7.00
C[C@H]1CN(c2ccc3nc(-c4cc5cn(C)nc5c(F)c4O)ncc3c2)C[C@H](C)N1 | > 7.00

Incoming: State the recorded pIC50 for this entry: `CN1CCC(N(C)c2ccc3nc(-c4cc5cn(C)nc5cc4O)ccc3n2)CC1`
Outgoing: 6.00 to 7.00

Incoming: Now give it for Cc1cn2cc(-c3ccc4cc(N5C[C@H](C)N[C@@H](C)C5)cc(F)c4n3)cc(F)c2n1 (single isomer, unassigned) [Compound 705, 2,2,2-trifluoroacetate] too.
Outgoing: > 7.00

Incoming: Now give it for `Cc1c(O)c(-c2nc(N(C)C)c3cc(N4CCNCC4)ccc3n2)cc2cn(C)nc12` too.
Outgoing: 5.00 to 6.00

Incoming: Now give it for Cn1cc2cc(-c3ccc4nc(N5CC[C@@H](NCC6CC6)C5)ccc4n3)c(O)c(F)c2n1 (single isomer, unassigned) too.
Outgoing: > 7.00

Incoming: Now give it for `Cc1nc2c(F)c(O)c(-c3ccc4nc(N5CC[C@H](NC6CC6)C5)ccc4n3)cc2o1` too.
Outgoing: > 7.00

Incoming: Now give it for Cc1c(O)c(-c2ccc3nc(N4CC[C@@H](NC(C)C)C4)ccc3n2)cc2cn(C)nc12 (single isomer, unassigned) too.
Outgoing: > 7.00

Incoming: Now give it for Cc1cn2cc(-c3ccc4nc(N5CCC(NC(C)(C)C)C5)ccc4n3)cc(C)c2n1 (centres unmarked) too.
Outgoing: 6.00 to 7.00

---

Tested on: HTT mRNA
Procedure Summary: RT-qPCR splicing assay, HTT mRNA canonical (CJ) and alternative (AJ) junction
Assay type: cell-based, human
Setup Conditions: Homo sapiens, HTT canonical junction mRNA, RT-qPCR; read-out: HTT CJ (decrease in CJ mRNA levels, IC50)
pIC50: −log10 of the molar value.
Catalogue of pIC50 readings, one per entry.

C[C@@H]1CN(c2ccc3nc(-c4cc5cn(C)nc5c(F)c4O)nc(-c4nccs4)c3c2)C[C@H](C)N1 [Compound 732] | < 5.00

Incoming: State the recorded pIC50 for this entry: Cn1cc2cc(-c3ncc4nc(C5CCNCC5)ccc4n3)c(O)c(F)c2n1 [Compound 155]
Outgoing: > 7.00

Incoming: Now give it for CNC(=O)c1nc(-c2cc3cn(C)nc3c(C)c2O)nc2ccc(N3CCN[C@@H](C)C3)cc12 (single isomer, unassigned) [Compound 512] too.
Outgoing: 6.00 to 7.00

Incoming: Now give it for CNC(=O)c1nc(-c2cc3cn(C)nc3c(F)c2O)nc2ccc(N3CCNCC3)cc12 [Compound 506] too.
Outgoing: > 7.00

Incoming: Now give it for Cc1nc2cc(O)c(-c3ccc4nc(N5CCC(NC(C)C)C5)ccc4n3)cc2o1 (stereo not shown) [Compound 231] too.
Outgoing: > 7.00

Incoming: Now give it for CNC1CCN(c2cc3c(Cl)cc(-c4cc5cn(C)nc5c(C)c4O)nc3cc2C)C1 (stereo not shown) [Compound 486] too.
Outgoing: 5.00 to 6.00

Incoming: Now give it for Cn1cc2cc(-c3ccc4nc(N5CCC56CCNCC6)ccc4n3)c(O)cc2n1 [Compound 164] too.
Outgoing: 6.00 to 7.00

Incoming: Now give it for Cc1nc2c(F)c(O)c(-c3ccc4nc(N5CC[C@H](N[C@H]6C[C@@H](F)C6)C5)ccc4n3)cc2o1 [Compound 374] too.
Outgoing: > 7.00

Incoming: Now give it for CC(C)NC1CCN(c2ccc3nc(-c4cc5cn(C)nc5c(F)c4O)ccc3n2)C1 (stereo not shown) [Compound 388] too.
Outgoing: > 7.00

Incoming: Now give it for Cc1nc2c(C)c(O)c(-c3ccc4nc(N5CC[C@@H](NC6(C)CC6)C5)ccc4n3)cc2o1 (single isomer, unassigned) [Compound 310] too.
Outgoing: > 7.00

Incoming: Now give it for Cc1c(O)c(-c2ncc3nc(N4CCNCC4)ccc3n2)cc2cn(C)nc12 [Compound 338] too.
Outgoing: 6.00 to 7.00

Incoming: Now give it for Cc1nc2c(F)c(O)c(-c3ccc4nc(N5CC[C@H](NC(C)(C)C)C5)ccc4n3)cc2o1 [Compound 255] too.
Outgoing: > 7.00

Incoming: Now give it for CCNC1CCN(c2ccc3nc(-c4cc5cn(C)nc5cc4O)ccc3n2)CC1 [Compound 131] too.
Outgoing: 5.00 to 6.00

Incoming: Now give it for Cn1cc2cc(-c3ccc4nc(N5CC[C@@H](NC6COC6)C5)ccc4n3)c(O)cc2n1 [Compound 188] too.
Outgoing: 6.00 to 7.00

Incoming: Now give it for Cc1nc2cc(O)c(-c3ccc4nc(N5CC[C@@H](NC6CC6)C5)ncc4n3)cc2o1 (single isomer, unassigned) [Compound 434] too.
Outgoing: > 7.00

Incoming: Now give it for Cc1nc2cc(O)c(-c3ccc4nc(N5C[C@@H](C)N[C@@H](C6CC6)C5)ccc4n3)cc2o1 [Compound 419] too.
Outgoing: 6.00 to 7.00

Incoming: Now give it for COc1cc2nc(C)oc2cc1-c1ccc2nc(N3CCC(NC(C)(C)C)C3)ccc2n1 (stereo not shown) [Compound 177] too.
Outgoing: 5.00 to 6.00

Incoming: Now give it for Cc1cn2nc(-c3ccc4nc(N5CCC(NC(C)(C)C)C5)ccc4n3)cc(C)c2n1 (stereo not shown) [Compound 186] too.
Outgoing: > 7.00
